Target: T1, P974_AMBCA (Amblyomma cajennense, UniProt A0A023FDY8 22-118)
T1 construct: His-tagged in BLI
T1 sequence: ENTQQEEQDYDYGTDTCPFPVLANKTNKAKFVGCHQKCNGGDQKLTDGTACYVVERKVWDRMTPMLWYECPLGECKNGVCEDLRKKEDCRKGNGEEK
Test: BLI
pKd: −log10 of the molar value.

| binder | pKd |
| --- | --- |
| CCL22_HUMAN (ligand) GPYGANMEDSVCCRDYVRYRLPLRVVKHFYWTSDSCPRPGVVLLTFRDKEICADPRVPWVKMILNKLSQ | 7.78 |

Value source: patent US20200247855A1
